EXPERIMENTAL TARGET: human Arginine Vasopressin Receptor 1a (AVPR1a) (Homo sapiens (Human))
Sequence (P37288 whole entry): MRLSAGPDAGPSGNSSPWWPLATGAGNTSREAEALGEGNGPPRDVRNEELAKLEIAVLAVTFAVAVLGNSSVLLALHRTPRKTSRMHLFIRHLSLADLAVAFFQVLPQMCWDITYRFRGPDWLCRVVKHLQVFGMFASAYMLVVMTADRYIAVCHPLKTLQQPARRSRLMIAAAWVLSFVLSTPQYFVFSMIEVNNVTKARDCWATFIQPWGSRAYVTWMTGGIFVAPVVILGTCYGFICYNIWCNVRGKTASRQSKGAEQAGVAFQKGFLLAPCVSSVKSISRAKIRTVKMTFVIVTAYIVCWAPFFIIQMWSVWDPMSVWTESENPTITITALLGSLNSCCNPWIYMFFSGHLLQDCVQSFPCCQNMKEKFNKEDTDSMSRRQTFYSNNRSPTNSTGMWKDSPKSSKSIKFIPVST
METHOD NOTES: Vasopressin V1A receptor antagonist assay (AVP-evoked calcium, FLIPR, CHO-AVPR1a cells)
Format: cell-based
RECORDED CONDITIONS: read-out: V1a IC50
pIC50: −log10 of the molar value.
VALUE TYPE: pIC50

INSERT INTO results (molecule, result) VALUES
  ('CCOC(=O)N1Cc2cc(Cl)ccc2-n2c(C3CC4(C3)CN(c3nccc(C(F)(F)F)n3)C4)nnc2C1C (stereo not shown) [compound 190]', '> 7.00'),
  ('CCOC(=O)N1Cc2cc(Cl)ccc2-n2c(C3CC4(C3)CN(c3ncccn3)C4)nnc2C1C (single isomer, unassigned) [Cpd 168B]', '6.30 to 7.00'),
  ('CN1Cc2cc(Cl)ccc2-n2c(nnc2C2CC3(C2)CN(C(=O)N2CCOCC2)C3)C1 [compound 25]', '< 6.00'),
  ('CN1Cc2cc(Cl)ccc2-n2c(nnc2C2CC3(C2)CN(c2cnccn2)C3)C1 [compound 3]', '> 7.00'),
  ('CC(C)N1Cc2cc(Cl)ccc2-n2c(nnc2C2CC3(C2)CN(c2ncccc2F)C3)C1 [compound 54]', '> 7.00'),
  ('CC1c2nnc(C3CC4(C3)CN(c3ccccn3)C4)n2-c2ccc(Cl)cc2CN1C(=O)C1(F)CC1 (single isomer, unassigned) [Cpd 181A]', '> 7.00'),
  ('COC(=O)N1Cc2cc(Cl)ccc2-n2c(C3CC4(C3)CN(c3ncncc3F)C4)nnc2C1C (stereo not shown) [compound 188]', '> 7.00'),
  ('CC1c2nnc(C3CC4(C3)CN(c3ncccn3)C4)n2-c2ccc(Cl)cc2CN1C(=O)OC1CC1 (single isomer, unassigned) [Cpd 171B]', '6.00 to 6.30'),
  ('COC(=O)N1Cc2cc(Cl)ccc2-n2c(C3CC4(C3)CN(c3ncc(F)cn3)C4)nnc2C1C (single isomer, unassigned) [Cpd 170A]', '> 7.00'),
  ('Cc1cncc(N2CC3(CC(c4nnc5n4-c4ccc(Cl)cc4CN(C4CC4)C5)C3)C2)n1 [compound 221]', '> 7.00'),
  ('Fc1cncnc1N1CC2(CC(c3nnc4n3-c3ccc(Cl)cc3CN(C3CC3)C4)C2)C1 [compound 247]', '> 7.00'),
  ('COc1ccc(C)nc1N1CC2(CC(c3nnc4n3-c3ccc(Cl)cc3CN(C3CC3)C4)C2)C1 [compound 274]', '> 7.00'),
  ('Fc1ccc(N2CC3(CC(c4nnc5n4-c4ccc(Cl)cc4CN(C4CC4)C5)C3)C2)nc1 [compound 223]', '> 7.00'),
  ('CCC(=O)N1Cc2cc(Cl)ccc2-n2c(nnc2C2CC3(C2)CN(C(=O)C2CCC2)C3)C1 [compound 37]', '> 7.00'),
  ('O=C(C(F)F)N1Cc2cc(Cl)ccc2-n2c(nnc2C2CC3(C2)CN(C(=O)C2CC2)C3)C1 [compound 138]', '> 7.00'),
  ('CCOC(=O)N1Cc2cc(Cl)ccc2-n2c(C3CC4(C3)CN(c3ncccn3)C4)nnc2C1C (single isomer, unassigned) [Cpd 168A]', '> 7.00');

----------
METHOD NOTES: MDR1-MDCK effective efflux assay (Transwell, 10 μM, 1 hour), wild-type MDCK cells
Assay type: in vitro ADME
RECORDED CONDITIONS: dog, MDCK, pH 7.4, Papp AB WT
VALUE TYPE: Papp A→B at 1 h, 10 μM

INSERT INTO measurements (mol, result) VALUES
  ('CC(=O)N1Cc2cc(Cl)ccc2-n2c(nnc2C2CC3(C2)CN(c2ccccn2)C3)C1', '10 to 20 ×10⁻⁶ cm/s'),
  ('CCC(=O)N1Cc2cc(Cl)ccc2-n2c(nnc2C2CC3(C2)CN(c2cccc(C#N)n2)C3)C1', '> 20 ×10⁻⁶ cm/s'),
  ('CC(C)C(=O)N1Cc2cc(Cl)ccc2-n2c(nnc2C2CC3(C2)CN(c2ccccn2)C3)C1', '> 20 ×10⁻⁶ cm/s'),
  ('COC(=O)N1Cc2cc(Cl)ccc2-n2c(nnc2C2CC3(C2)CN(c2cccnn2)C3)C1', '10 to 20 ×10⁻⁶ cm/s');

----------
Quick reference for Papp A→B at 1 h, 10 μM among some compounds
System: MDR1 (P-glycoprotein)
METHOD NOTES: MDR1-MDCK effective efflux assay (Transwell, 10 μM, 1 hour), MDR1-MDCK cells
Assay type: in vitro ADME
RECORDED CONDITIONS: dog, MDCK-MDR1, pH 7.4, Papp AB MDR1
VALUE TYPE: Papp A→B at 1 h, 10 μM

INSERT INTO measurements (compound, value_type, result) VALUES
  ('O=C(N1Cc2cc(Cl)ccc2-n2c(nnc2C2CC3(C2)CN(c2ccc(F)cn2)C3)C1)C1(F)CC1 [compound 156]', 'Papp A→B at 1 h, 10 μM', '10 to 20 ×10⁻⁶ cm/s'),
  ('COC(=O)N1Cc2cc(Cl)ccc2-n2c(nnc2C2CC3(C2)CN(C(=O)C2CC2)C3)C1 [compound 162]', 'Papp A→B at 1 h, 10 μM', '< 7 ×10⁻⁶ cm/s'),
  ('CCC(=O)N1Cc2cc(Cl)ccc2-n2c(nnc2C2CC3(C2)CN(c2cccc(C#N)n2)C3)C1 [compound 125]', 'Papp A→B at 1 h, 10 μM', '< 7 ×10⁻⁶ cm/s'),
  ('CC(=O)N1Cc2cc(Cl)ccc2-n2c(nnc2C2CC3(C2)CN(c2cccc(C#N)n2)C3)C1 [compound 94]', 'Papp A→B at 1 h, 10 μM', '< 7 ×10⁻⁶ cm/s'),
  ('CCOC(=O)N1Cc2cc(Cl)ccc2-n2c(C3CC4(C3)CN(c3ncc(F)cn3)C4)nnc2C1C (stereo not drawn) [compound 172]', 'Papp A→B at 1 h, 10 μM', '> 20 ×10⁻⁶ cm/s'),
  ('CCC(=O)N1Cc2cc(Cl)ccc2-n2c(nnc2C2CC3(C2)CN(c2ncccn2)C3)C1 [compound 107]', 'Papp A→B at 1 h, 10 μM', '< 7 ×10⁻⁶ cm/s');

----------
EXPERIMENTAL TARGET: human Arginine Vasopressin Receptor 1a (AVPR1a) (Homo sapiens (Human))
METHOD NOTES: Vasopressin V1A receptor antagonist assay (AVP-evoked calcium, FLIPR, CHO-AVPR1a cells)
Assay type: cell-based
RECORDED CONDITIONS: read-out: V1a IC50
pIC50: −log10 of the molar value.
VALUE TYPE: pIC50

INSERT INTO measurements (compound, result) VALUES
  ('CC(C)OC(=O)N1Cc2cc(Cl)ccc2-n2c(C3CC4(C3)CN(c3ccncn3)C4)nnc2C1C (single isomer, unassigned) [Cpd 187B]', '< 6.00'),
  ('Fc1ccc(N2CC3(CC(c4nnc5n4-c4ccc(Cl)cc4CN(CC(F)(F)F)C5)C3)C2)nc1 [compound 259]', '> 7.00'),
  ('COCCN1Cc2cc(Cl)ccc2-n2c(nnc2C2CC3(C2)CN(c2ccc(F)cn2)C3)C1 [compound 44]', '> 7.00'),
  ('CC(C)OC(=O)N1Cc2cc(Cl)ccc2-n2c(C3CC4(C3)CN(c3cccc(C#N)n3)C4)nnc2C1C (single isomer, unassigned) [Cpd 204B]', '6.30 to 7.00'),
  ('CCN1Cc2cc(Cl)ccc2-n2c(nnc2C2CC3(C2)CN(c2ccccn2)C3)C1 [compound 45]', '> 7.00'),
  ('CC1c2nnc(C3CC4(C3)CN(c3ccc(F)cn3)C4)n2-c2ccc(Cl)cc2CN1C(=O)C(C)(C)F (single isomer, unassigned) [Cpd 178B]', '6.30 to 7.00'),
  ('CC(C)N1Cc2cc(Cl)ccc2-n2c(nnc2C2CC3(C2)CN(c2cnccn2)C3)C1 [compound 47]', '> 7.00'),
  ('O=C(C1COC1)N1Cc2cc(Cl)ccc2-n2c(nnc2C2CC3(C2)CN(c2ccc(F)cn2)C3)C1 [compound 160]', '> 7.00'),
  ('CC1(N2Cc3cc(Cl)ccc3-n3c(nnc3C3CC4(C3)CN(c3ncc(F)cn3)C4)C2)CC1 [compound 261]', '> 7.00'),
  ('CCOC(=O)N1Cc2cc(Cl)ccc2-n2c(C3CC4(C3)CN(c3ncccn3)C4)nnc2C1C (stereo not shown) [compound 168]', '> 7.00');

----------
Quick reference for IC50 among some compounds
EXPERIMENTAL TARGET: human Arginine Vasopressin Receptor 1a (AVPR1a) (Homo sapiens (Human))
METHOD NOTES: Vasopressin V1A receptor antagonist assay (AVP-evoked calcium, FLIPR, CHO-AVPR1a cells)
Assay type: cell-based
VALUE TYPE: IC50

INSERT INTO measurements (compound, result) VALUES
  ('Cc1cnc(N2CC3(CC(c4nnc5n4-c4ccc(Cl)cc4CN(C4(C)CC4)C5)C3)C2)nc1 [compound 253]', '100 to 500 nM'),
  ('Cc1nc(N2CC3(CC(c4nnc5n4-c4ccc(Cl)cc4CN(C4CC4)C5)C3)C2)no1 [compound 268]', '100 to 500 nM'),
  ('CN1Cc2cc(Cl)ccc2-n2c(nnc2C2CC3(C2)CN(c2nn(C)c4ncccc24)C3)C1 [compound 231]', '100 to 500 nM'),
  ('COC(=O)N1Cc2cc(Cl)ccc2-n2c(C3CC4(C3)CN(c3ncncc3F)C4)nnc2C1C (stereo not shown) [compound 183]', '100 to 500 nM'),
  ('CN1Cc2cc(Cl)ccc2-n2c(nnc2C2CC3(C2)CN(c2cncc(F)c2)C3)C1 [compound 10]', '100 to 500 nM'),
  ('COc1cccc(N2CC3(CC(c4nnc5n4-c4ccc(Cl)cc4CN(C)C5)C3)C2)n1 [compound 7]', '100 to 500 nM'),
  ('CN1Cc2cc(Cl)ccc2-n2c(nnc2C2CC3(C2)CN(c2ccncn2)C3)C1 [compound 243]', '100 to 500 nM'),
  ('O=C1OCC2c3nnc(C4CC5(C4)CN(c4ccc(F)cn4)C5)n3-c3ccc(Cl)cc3CN12 (stereo not shown) [compound 200]', '100 to 500 nM'),
  ('CN1Cc2cc(Cl)ccc2-n2c(nnc2C2CC3(C2)CN(c2cccnc2)C3)C1 [compound 5]', '100 to 500 nM'),
  ('CN1Cc2cc(Cl)ccc2-n2c(nnc2C2CC3(C2)CN(c2cccnn2)C3)C1 [compound 13]', '100 to 500 nM'),
  ('COc1ccc(N2CC3(CC(c4nnc5n4-c4ccc(Cl)cc4CN(C)C5)C3)C2)nc1 [compound 11]', '500 to 1000 nM'),
  ('CC(C)C(=O)N1CC2(CC(c3nnc4n3-c3ccc(Cl)cc3CN(C)C4)C2)C1 [compound 30]', '100 to 500 nM'),
  ('Cc1nc(N2CC3(CC(c4nnc5n4-c4ccc(Cl)cc4CN(C)C5)C3)C2)no1 [compound 266]', '500 to 1000 nM');
